Cited source for all entries: patent US20250144067A1

Test system: NCI-H292 lung cancer cells
assayRemarks: FDA drug screening, complete media vs cholesterol-free media without statin (TABLE 1)
Format: cell-based, human
runParameters: NCI-H292 cells, complete media
Criterion: Complete strictly less than 1. Met: fulfilled. Not met: not fulfilled.

smilesRepresentation	targetOrSystem	answerLabel
Nc1ncn([C@@H]2O[C@H](CO)[C@@H](O)[C@H]2O)c(=O)n1	NCI-H292 lung cancer cells	fulfilled
Cc1ccc(C)c(OCCCC(C)(C)C(=O)O)c1	NCI-H292 lung cancer cells	fulfilled
O=C(O)CC(O)(CC(=O)O)C(=O)O	NCI-H292 lung cancer cells	not fulfilled

###

Tested on: NCI-H292 lung cancer cells
assayRemarks: FDA drug screening, complete media vs cholesterol-free media with simvastatin (TABLE 2)
Assay type: cell-based, human
runParameters: NCI-H292 cells, FDA drug library screen, cholesterol-free media with simvastatin 0.04 μM
Where a name gives a salt, the structure may show the parent alone.
// values below are reported Cholesterol-free media + simvastatin (0.04 μM)
reportedMetric: Cholesterol-free media + simvastatin (0.04 μM)

molecule	recordedResult
C[N+]1(C)CCC(OC(=O)C(O)(c2ccccc2)C2CCCC2)C1 (centres unmarked) [Glycopyrrolate]	2.314
O=C[C@H](O)[C@@H](O)[C@H](O)CO [Xylose]	1.188
NC(=O)c1cn(Cc2c(F)cccc2F)nn1 [Rufinamide]	0.995
CCOC(=O)/C=C(C)/C=C/C=C(C)/C=C/c1c(C)cc(OC)c(C)c1C [Etretinate]	0.824
CC[C@@]1(O)C(=O)OCc2c1cc1n(c2=O)Cc2cc3c(CN(C)C)c(O)ccc3nc2-1 [Topotecan (Hydrochloride)]	0.1355
CNCCC(Oc1ccc(C(F)(F)F)cc1)c1ccccc1 (centres unmarked) [Fluoxetine (hydrochloride)]	0.8887
CC(=O)CC(c1ccc([N+](=O)[O-])cc1)c1c(O)c2ccccc2oc1=O (centres unmarked) [Acenocoumarol]	2.014
CC(=O)OCC(=O)[C@@]12OC3(CCCC3)O[C@@H]1C[C@H]1[C@@H]3CCC4=CC(=O)C=C[C@]4(C)[C@@]3(F)[C@@H](O)C[C@@]12C [Amcinonide]	0.5029

###

We begin with a simple list: items and their reported Complete.
Test system: NCI-H292 lung cancer cells
assayRemarks: FDA drug screening, complete media vs cholesterol-free media without statin (TABLE 1)
Type: cell-based, human
runParameters: NCI-H292 cells, complete media

compound	Complete
CC1=NS(=O)(=O)c2cc(Cl)ccc2N1 [Diazoxide]	0.9038
NCCCC[C@H](N)C(=O)O	0.8592
C[C@H]1C[C@@H]2[C@H]([C@@H](O)C[C@@]3(C)[C@H]2CC[C@]3(O)C(=O)COC(=O)CCC(=O)O)[C@@]2(C)C=CC(=O)C=C12 [Methylprednisolone succinate]	0.4661
C[n+]1ccccc1/C=N/O.[Cl-] [Pralidoxime (chloride)]	0.8976
Nc1ccn([C@H]2CC[C@@H](CO)O2)c(=O)n1	0.9405
CC(C(=O)O)c1ccc(CC2CCCC2=O)cc1 (centres unmarked) [Loxoprofen (sodium)]	0.7554
CC(=O)N1CCN(c2ccc(OC[C@H]3CO[C@](Cn4ccnc4)(c4ccc(Cl)cc4Cl)O3)cc2)CC1 [(+)-Ketoconazole]	0.9934
O=C(O[C@@H]1C[C@@H]2C[C@H]3C[C@H](C1)N2CC3=O)c1c[nH]c2ccccc12 [Dolasetron (Mesylate hydrate)]	0.8444
